From: ChEMBL document CHEMBL5291721

# targetEntity: Beta-2 adrenergic receptor (Homo sapiens, UniProt P07550); also: assay procedure not described here
# Sequence (P07550 whole entry): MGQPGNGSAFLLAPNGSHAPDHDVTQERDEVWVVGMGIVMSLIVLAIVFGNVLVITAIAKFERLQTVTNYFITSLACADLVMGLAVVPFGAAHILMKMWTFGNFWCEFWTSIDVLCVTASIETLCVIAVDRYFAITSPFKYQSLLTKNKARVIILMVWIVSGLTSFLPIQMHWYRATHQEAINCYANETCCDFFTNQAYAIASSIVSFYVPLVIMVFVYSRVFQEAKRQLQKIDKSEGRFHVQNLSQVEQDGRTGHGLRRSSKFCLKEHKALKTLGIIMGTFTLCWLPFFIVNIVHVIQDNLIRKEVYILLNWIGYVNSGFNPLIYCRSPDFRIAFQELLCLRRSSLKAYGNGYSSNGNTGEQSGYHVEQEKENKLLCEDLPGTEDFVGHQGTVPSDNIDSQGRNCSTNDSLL

molecule	AC50
O=C(O)[C@H](CC(=O)N1C[C@H]2CCCC[C@H]2C1)Cc1ccccc1 [MITIGLINIDE]	> 10 µM
CC(CC(c1ccccc1)c1ccccc1)NC(C)(C)C (configuration not stated)	> 30 µM
CCCCCNC(=N)N/N=C/c1c[nH]c2ccc(OC)cc12	7.36 µM
Cc1c(OCC(F)(F)F)ccnc1C[S+]([O-])c1nc2ccccc2[nH]1 (configuration not stated)	> 10 µM
Cc1cc(O)c(C(=O)N[C@@H](C(=O)N[C@@H]2C(=O)N3C(C(=O)O)=C(CSc4nnnn4C)CS[C@H]23)c2ccc(O)cc2)cn1 [CEFPIRAMIDE]	> 30 µM
CCCCc1ncc(/C=C(\Cc2cccs2)C(=O)O)n1Cc1ccc(C(=O)O)cc1	> 10 µM
CCCCCCOc1ccccc1C(N)=O [EXALAMIDE]	> 30 µM
CCCCN1C[C@H](O)[C@@H](O)[C@H](O)[C@H]1CO	> 30 µM
COc1ccc(-c2ccc3cc(C(=O)O)ccc3c2)cc1C12CC3CC(CC(C3)C1)C2	> 30 µM
Cn1c(=O)c2c(ncn2CC2OCCO2)n(C)c1=O	> 30 µM
NCC[C@H](O)C(=O)N[C@@H]1C[C@H](N)[C@@H](O[C@H]2O[C@H](CN)[C@@H](O)[C@H](O)[C@H]2O)[C@H](O)[C@H]1O[C@H]1O[C@H](CO)[C@@H](O)[C@H](N)[C@H]1O	> 10 µM
CCOc1ccccc1OCC1CNCCO1 (configuration not stated)	7.6 µM
COC(=O)[C@H]1[C@H]2C[C@@H]3c4[nH]c5cc(OC)ccc5c4CCN3C[C@H]2C[C@@H](OC(=O)/C=C/c2cc(OC)c(OC)c(OC)c2)[C@@H]1OC	> 10 µM
Nc1nc(N)nc(-c2cc(Cl)ccc2Cl)n1	> 30 µM
CS(=O)(=O)c1ccc(C2=C(c3ccccc3)C(=O)OC2)cc1	> 10 µM
CN1CCN(CC/C=C2/c3ccccc3Sc3ccc(S(=O)(=O)N(C)C)cc32)CC1	> 10 µM
CC(C)=CCC/C(C)=C/C=C/C(C)=C/C=C/C(C)=C/C=C/C=C(C)/C=C/C=C(C)/C=C/C=C(\C)CCC=C(C)C	> 30 µM
CCOC(=O)OC(C)OC1=C(C(=O)Nc2ccccn2)N(C)S(=O)(=O)c2ccccc21 (configuration not stated)	> 30 µM
CC(C)Cn1cnc2c(N)nc3ccccc3c21	> 10 µM
C=CCN1C[C@H](C(=O)N(CCCN(C)C)C(=O)NCC)C[C@@H]2c3cccc4[nH]cc(c34)C[C@H]21	> 10 µM
O=C(O[C@H]1C[C@H]2CC[C@@H](C1)[N+]21CCCC1)C(O)(c1ccccc1)c1ccccc1	> 30 µM
C[C@]1(O)CC[C@H]2[C@@H]3CCC4=CC(=O)CC[C@]4(C)[C@@]3(F)[C@@H](O)C[C@@]21C	> 10 µM

---

# targetEntity: Muscarinic acetylcholine receptor M1 (Homo sapiens); also: assay procedure not described here
# Sequence (P11229 whole entry): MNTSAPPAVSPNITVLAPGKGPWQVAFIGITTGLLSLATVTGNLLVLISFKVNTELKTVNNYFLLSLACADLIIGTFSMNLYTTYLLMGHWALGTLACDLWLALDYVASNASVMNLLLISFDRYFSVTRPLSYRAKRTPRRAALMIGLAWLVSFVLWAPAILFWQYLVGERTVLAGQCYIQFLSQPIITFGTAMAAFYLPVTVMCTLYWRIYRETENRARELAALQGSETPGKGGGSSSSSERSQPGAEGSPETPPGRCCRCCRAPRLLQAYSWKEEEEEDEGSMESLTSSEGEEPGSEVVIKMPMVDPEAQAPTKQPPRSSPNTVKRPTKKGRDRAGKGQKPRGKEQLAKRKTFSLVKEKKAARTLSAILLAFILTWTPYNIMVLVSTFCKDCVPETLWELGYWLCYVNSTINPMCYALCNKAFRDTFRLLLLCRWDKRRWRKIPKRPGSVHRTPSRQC
# Type: functional
Entries and their AC50 values follow.
resultType: AC50

compound	endpointValue
COc1ccc(CCNCC(O)COc2cccc(C)c2)cc1OC (stereo not given)	> 10 µM
COC(=O)C1=C(C)NC(C)=C(C(=O)OC2CCCN(Cc3ccccc3)C2)C1c1cccc([N+](=O)[O-])c1 (stereo not given)	18 µM
CC(C)OC(=O)CCC/C=C\C[C@@H]1[C@@H](CC[C@@H](O)CCc2ccccc2)[C@H](O)C[C@@H]1O	> 30 µM
C#C[C@]1(O)CC[C@H]2[C@@H]3CCc4cc(OC5CCCC5)ccc4[C@H]3CC[C@@]21C	> 10 µM
CNC(=O)c1ccccc1Sc1ccc2c(/C=C/c3ccccn3)n[nH]c2c1	> 30 µM
CC(=O)O[C@H]1CC[C@@]2(C)C(=CC[C@@H]3[C@@H]2CC[C@]2(C)C(c4cccnc4)=CC[C@@H]32)C1 [ABIRATERONE ACETATE]	> 30 µM
COCCCN1CCC(NC(=O)c2cc(Cl)c(N)c3c2OCC3)CC1 [PRUCALOPRIDE]	> 30 µM
CCCC(C)C1(CC)C(=O)NC(=O)NC1=O (stereo not given)	> 30 µM
O=[N+]([O-])O[C@@H]1CO[C@H]2[C@@H]1OC[C@@H]2O [ISOSORBIDE MONONITRATE]	> 10 µM
CC(C)(C)NCC(O)COc1cccc2c1CCC(=O)N2 (stereo not given)	> 10 µM
O=C(O)C1=C(CSc2nnnn2CS(=O)(=O)O)CS[C@@H]2[C@H](NC(=O)[C@H](O)c3ccccc3)C(=O)N12	> 30 µM
NC(=O)OCC(COC(N)=O)c1ccccc1 [FELBAMATE]	> 10 µM
CCOC(=O)[N-]c1cn(N2CCOCC2)n[o+]1	> 30 µM
COc1ccc2c3c1O[C@H]1C(=O)CC[C@@]4(O)[C@@H](C2)N(C)CC[C@]314	> 30 µM
O=C1C(O)=C([C@H]2CC[C@H](c3ccc(Cl)cc3)CC2)C(=O)c2ccccc21	> 30 µM
COc1cc2c(N)nc(N3CCN(C(=O)OCC(C)(C)O)CC3)nc2c(OC)c1OC	> 30 µM
CC(C)=CCC/C(C)=C/C=C/C(C)=C/C=C/C(C)=C/C=C/C=C(C)/C=C/C=C(C)/C=C/C=C(\C)CCC=C(C)C	> 30 µM
COc1ccc(C(=O)Nc2ccccc2CCC2CCCCN2C)cc1 (stereo not given) [ENCAINIDE]	> 10 µM
Cc1c(C(=O)NN2CCCCC2)nn(-c2ccc(Cl)cc2Cl)c1-c1ccc(Cl)cc1	> 30 µM
CC(C(=O)O)c1ccc(N2Cc3ccccc3C2=O)cc1 (stereo not given)	> 30 µM
C/C(O)=C(\C#N)C(=O)Nc1ccc(C(F)(F)F)cc1 [TERIFLUNOMIDE]	> 30 µM
COC(=O)[C@H]1[C@H]2C[C@@H]3c4[nH]c5cc(OC)ccc5c4CCN3C[C@H]2C[C@@H](OC(=O)/C=C/c2cc(OC)c(OC)c(OC)c2)[C@@H]1OC	> 10 µM
Nc1nc(/C(=C/CC(=O)O)C(=O)N[C@@H]2C(=O)N3C(C(=O)O)=CCS[C@H]23)cs1	> 30 µM
NC(=O)CN1CC(O)CC1=O (stereo not given)	> 30 µM
c1cnc(N2CCN(Cc3ccc4c(c3)OCO4)CC2)nc1	> 30 µM
Clc1ccc2nsnc2c1NC1=NCCN1	> 10 µM
O=C(O)/C=C/c1ccc(Cn2ccnc2)cc1	> 30 µM
CC(C)(C)c1cc(C(C)(C)C)c(NC(=O)c2c[nH]c3ccccc3c2=O)cc1O	> 10 µM
CC(=O)OCC(=O)[C@@]12N=C(C)O[C@@H]1C[C@H]1[C@@H]3CCC4=CC(=O)C=C[C@]4(C)[C@H]3[C@@H](O)C[C@@]12C	> 30 µM
CCOc1ccccc1OCC1CNCCO1 (stereo not given)	> 10 µM

---

# targetEntity: Gamma-aminobutyric acid receptor subunit alpha-1 (Rattus norvegicus, UniProt P62813); also: assay procedure not described here
# Sequence (P62813 whole entry): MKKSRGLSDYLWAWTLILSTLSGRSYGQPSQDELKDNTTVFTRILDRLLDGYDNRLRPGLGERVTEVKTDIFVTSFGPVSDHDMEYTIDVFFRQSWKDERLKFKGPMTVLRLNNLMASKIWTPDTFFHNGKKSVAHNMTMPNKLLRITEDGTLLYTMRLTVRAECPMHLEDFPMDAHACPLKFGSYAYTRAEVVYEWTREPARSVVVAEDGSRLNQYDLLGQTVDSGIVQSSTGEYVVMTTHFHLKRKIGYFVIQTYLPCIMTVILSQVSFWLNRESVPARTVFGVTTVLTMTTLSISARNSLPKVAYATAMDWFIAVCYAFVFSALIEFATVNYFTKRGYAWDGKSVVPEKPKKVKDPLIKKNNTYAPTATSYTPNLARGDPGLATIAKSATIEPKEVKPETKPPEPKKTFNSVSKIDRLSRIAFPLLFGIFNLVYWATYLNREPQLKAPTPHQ
# Format: functional
Entries and their AC50 values follow.
resultType: AC50

compound	endpointValue
CC[C@H]1[C@@H](O)[C@@H]2[C@H](CC[C@]3(C)[C@@H]([C@H](C)CCC(=O)O)CC[C@@H]23)[C@@]2(C)CC[C@@H](O)C[C@@H]12	> 30 µM
C#C[C@]1(O)CC[C@H]2[C@@H]3CCC4=Cc5oncc5C[C@]4(C)[C@H]3CC[C@@]21C	> 10 µM
CCc1c(Cl)c(O)c(Cl)c(O)c1C(=O)O[C@H]1[C@H](O)[C@H](OC)[C@H](OC/C2=C\C=C\C[C@H](O)/C(C)=C/[C@H](CC)[C@@H](O[C@@H]3OC(C)(C)[C@@H](OC(=O)C(C)C)[C@H](O)[C@@H]3O)/C(C)=C/C(C)=C/C[C@@H]([C@@H](C)O)OC2=O)O[C@@H]1C	> 10 µM
CC/C(=C(\c1ccccc1)c1ccc(OCCN(C)C)cc1)c1ccccc1	> 10 µM
CS(=O)(=O)c1ccc(C2=C(c3ccccc3)C(=O)OC2)cc1	4.7 µM
CC(=O)O[C@H]1CC[C@@]2(C)C(=CC[C@@H]3[C@@H]2CC[C@]2(C)C(c4cccnc4)=CC[C@@H]32)C1 [ABIRATERONE ACETATE]	> 30 µM
O=C1C(O)=C([C@H]2CC[C@H](c3ccc(Cl)cc3)CC2)C(=O)c2ccccc21	> 30 µM
C=CCN1C[C@H](C(=O)N(CCCN(C)C)C(=O)NCC)C[C@@H]2c3cccc4[nH]cc(c34)C[C@H]21	> 10 µM
CNC(=O)c1ccccc1Sc1ccc2c(/C=C/c3ccccn3)n[nH]c2c1	> 30 µM
Cc1cc(O)c(C(=O)N[C@@H](C(=O)N[C@@H]2C(=O)N3C(C(=O)O)=C(CSc4nnnn4C)CS[C@H]23)c2ccc(O)cc2)cn1 [CEFPIRAMIDE]	> 30 µM
C=CCC1(C(C)CC)C(=O)NC(=O)NC1=O (configuration not stated)	> 10 µM
CC(C)(C)NCC(O)COc1cccc2c1CCC(=O)N2 (configuration not stated)	> 10 µM
